Where do these numbers come from? They come from paper PMC8318231.

# Test system: T. cruzi intracellular amastigotes in H9c2 cells
# assay.name: Rate-of-Kill (RoK) high-content imaging assay, amastigotes per cell (AM/CELL) and curve descriptors
# Assay type: cell-based, Trypanosoma cruzi
# condition.summary: at MCC50
measure: t50%_MCC50 (h)
Note: unit h is implicit; provide only the numeric part.

Q. Entry COc1ccc(C(=O)Nc2cc(C(F)(F)F)ccc2N2CCOCC2)c(OC)c1 has what t50%_MCC50?
A. 72.0

Q. Entry COc1ccc(C2CC(c3ccccc3Cl)=NN2C(=O)CNC(=O)C2CCC2)cc1 (centres unmarked) has what t50%_MCC50?
A. 72.0

Q. Entry COc1ccc(-c2nc3ncccc3o2)cc1NC(=O)c1cccs1 has what t50%_MCC50?
A. 48.0

Q. Entry O=C(NCCc1ccccn1)C(c1cn[nH]c1)N1CCN(c2ccc(Cl)c(Cl)c2)CC1 (centres unmarked) has what t50%_MCC50?
A. 72.0

Q. Entry CC1CN(S(=O)(=O)c2ccc(NC(=O)c3cc(C4CC4)nc4c3cnn4C(C)C)cc2)CC(C)O1 (centres unmarked) has what t50%_MCC50?
A. 72.0

Q. Entry CCCN1CCN(Cc2ccc(S(=O)(=O)Nc3cccc(C)c3)cc2)CC1.O=C(O)C(F)(F)F.O=C(O)C(F)(F)F has what t50%_MCC50?
A. 72.0

Q. Entry Cl.O=c1cc(NCCCNC2CCOc3c(I)cc(Cl)cc32)[nH]c2ccccc12 (centres unmarked) has what t50%_MCC50?
A. 72.0

Q. Entry Cc1sc(C)c(C(F)(F)F)c1CNCCCNc1cc(=O)c2ccccc2[nH]1.Cl has what t50%_MCC50?
A. 72.0

###

# Test system: T. cruzi intracellular amastigotes in H9c2 cells
# assay.name: Rate-of-Kill (RoK) high-content imaging assay, amastigotes per cell (AM/CELL) and curve descriptors
# Assay type: cell-based, Trypanosoma cruzi
# Parameters: key: % reduction in parasite burden (cidal response)
# condition.summary: 72h, figure 5
# Description: For this high-content intracellular imaging assay, H9c2 cells were seeded in 225 cm^2 T- FLASK in DMEM with 10% FBS for 4 h to allow attachment. […] Trypomastigotes were then collected and counted in a CASY Cell Counter using the 60 μm capillary. […] Cells were counted in a CASY Cell Counter, using the 150 μm capillary, and their density set at 5 x 10^4 cells/mL in supplemented DMEM. […] Then plates were read in a PerkinElmer Opera Phenix using a 20x objective, 3 fields per well. […]
// thresholds for ME_72h classes: low = under 40, medium = from 40 up to 70, high = 70 and over

Q. Determine which band this compound sits in: Cc1cccc(N2CCCN(Cc3c[nH]c4ccccc34)CC2)n1 [TCMDC-143185]
A. high

Q. Determine which band this compound sits in: O=C(N1CCc2ccccc2CC1)C1(C(=O)N2CCC(n3c(=O)[nH]c4ncccc43)CC2)CC1.O=C(O)C(F)(F)F [TCMDC-143381]
A. low

Q. Determine which band this compound sits in: O=C1CSC(c2cccnc2)N1c1ccc(Cl)cc1Cl (stereo not drawn) [TCMDC-143114]
A. high

Q. Determine which band this compound sits in: COc1ccc(-c2nc3ncccc3o2)cc1NC(=O)c1cccs1 [TCMDC-143137]
A. high

Q. Determine which band this compound sits in: CCCn1c(NC(=O)Cc2ccc(Cl)cc2)nc2ccccc21 [TCMDC-143279]
A. low

Q. Determine which band this compound sits in: CN1CCCN(C(=O)c2ccc(N3CCCC3)cc2Cl)CC1 [TCMDC-143127]
A. high

Q. Determine which band this compound sits in: O=C(CN(c1cccc(C(F)(F)F)c1)S(=O)(=O)c1ccc(Cl)cc1)NCc1ccc(F)c(F)c1 [TCMDC-143548]
A. low

Q. Determine which band this compound sits in: CC(C)Oc1cccc(N2CCC(C(=O)N3CCCN(C(C)C)CC3)CC2)c1.Cl [TCMDC-143432]
A. high

Q. Determine which band this compound sits in: CNc1cc(C)nc(C2CN(C(=O)c3n[nH]c4ccccc34)CCO2)c1 (stereo not drawn) [TCMDC-143494]
A. medium

Q. Determine which band this compound sits in: CCCN1CCN(Cc2ccc(S(=O)(=O)Nc3cccc(C)c3)cc2)CC1.O=C(O)C(F)(F)F.O=C(O)C(F)(F)F [TCMDC-143550]
A. medium

Q. Determine which band this compound sits in: COc1cc(-c2nc(N3CCOCC3)sc2-c2ccnc(NC3CCOCC3)n2)ccc1Cl.O=C(O)C(F)(F)F [TCMDC-143414]
A. low

Q. Determine which band this compound sits in: COc1ccc2c(Cl)c(C(=O)N3CCC3)sc2c1Cl [TCMDC-143262]
A. low

Q. Determine which band this compound sits in: CC(=O)Nc1nc(-c2cc(C)ccc2C)c(C)s1 [TCMDC-143207]
A. medium

Q. Determine which band this compound sits in: O=C(O)/C=C\C(=O)O.O=C(c1ccc(OCCCc2cnc[nH]2)cc1)C1CC1 [TCMDC-143632]
A. medium

Q. Determine which band this compound sits in: O=C(CSc1ccc(F)cc1)N[C@@H](Cc1cnc[nH]1)C(=O)NCCc1ccccc1.O=C(O)C(F)(F)F [TCMDC-143317]
A. medium

Q. Determine which band this compound sits in: Cc1cc(N(C)C)nc(Nc2ccccc2C)n1 [TCMDC-143109]
A. high

Q. Determine which band this compound sits in: Clc1ccc(Sc2cnccc2N2CCOCC2)cc1 [TCMDC-143602]
A. low

###

Assignment: determine reported AM/CELL NORM for the given molecules.
# System: T. cruzi intracellular amastigotes in H9c2 cells
# assay.name: Rate-of-Kill (RoK) high-content imaging assay, amastigotes per cell (AM/CELL) and curve descriptors
# Assay type: cell-based, Trypanosoma cruzi
# condition.summary: Time 48; sheet figure 4 A
Reply briefly: the number, and no unit.

Q. Entry CS(=O)(=O)c1cccc(-c2cnc(N)c3c(-c4ccc(CO)cc4)csc23)c1.O=C(O)C(F)(F)F has what AM/CELL NORM?
A. -1.837

Q. Entry CCCN1CCN(Cc2ccc(S(=O)(=O)Nc3cccc(C)c3)cc2)CC1.O=C(O)C(F)(F)F.O=C(O)C(F)(F)F has what AM/CELL NORM?
A. 33.2327

Q. Entry c1ccc2c(CCOc3nccnc3-c3ccncc3)c[nH]c2c1 has what AM/CELL NORM?
A. 30.5632

Q. Entry O=C(NCCc1cccnc1)c1ccc(-c2ccccc2F)o1 has what AM/CELL NORM?
A. -106.707

Q. Entry O=C(O)C(F)(F)F.O=c1ccc2ccc(F)c3c2n1C[C@H]3CN1CCC(NCc2cc3ccccc3o2)CC1 has what AM/CELL NORM?
A. 43.1407

Q. Entry CCCCNc1nccc(-c2c(-c3ccc(F)cc3)nn3c(N4CCOCC4)cccc23)n1 has what AM/CELL NORM?
A. -1143.86

Q. Entry O=S(=O)(c1cccc(CSc2nnc(-c3ccc4c(c3)OCO4)o2)c1)N1CCOCC1 has what AM/CELL NORM?
A. -6.567

Q. Entry CS(=O)(=O)NC1CCC(Oc2cc3cnccc3cc2-c2ccsc2)CC1.O=C(O)C(F)(F)F (stereo not drawn) has what AM/CELL NORM?
A. 27.0388

Q. Entry Cc1cccnc1CN1CCN(CCCOc2ccc(-c3ccc(C(N)=O)cc3)cc2)CC1 has what AM/CELL NORM?
A. -122.335

Q. Entry O=C1CSC(c2cccnc2)N1c1ccc(Cl)cc1Cl (stereo not drawn) has what AM/CELL NORM?
A. 48.1247

Q. Entry CCCc1nc2nc(N)nc(N)c2cc1CC has what AM/CELL NORM?
A. 56.204

Q. Entry FC(F)(F)c1cc(C2CCCN(Cc3c[nH]c4ccccc34)C2)nc2ncnn12.O=C(O)C(O)C(O)C(=O)O (stereo not drawn) has what AM/CELL NORM?
A. 59.0796

Q. Entry CCCn1c(NC(=O)Cc2ccc(Cl)cc2)nc2ccccc21 has what AM/CELL NORM?
A. -347.093

Q. Entry CC(=O)Nc1nc(-c2cc(C)ccc2C)c(C)s1 has what AM/CELL NORM?
A. 6.875

Q. Entry CN(C)CCOc1ccc(N2CCN(S(=O)(=O)c3ccc(Cl)cc3)CC2)cc1 has what AM/CELL NORM?
A. 63.0909

Q. Entry Cc1nn(C)c(Cl)c1CN(Cc1cccnc1)Cc1ccsc1 has what AM/CELL NORM?
A. -102.792

Q. Entry N#Cc1ccc(S(=O)(=O)N2CCC3(CCN(c4ccccc4)C3=O)CC2)cc1 has what AM/CELL NORM?
A. 45.4375

Q. Entry Cc1c(C(C)NC(=O)Nc2cccc(Cl)c2)sc2ncnn12 (stereo not drawn) has what AM/CELL NORM?
A. -32.4517

###

Assignment: determine reported AM/CELL NORM for the given molecules.
# System: T. cruzi intracellular amastigotes in H9c2 cells
# assay.name: Rate-of-Kill (RoK) high-content imaging assay, amastigotes per cell (AM/CELL) and curve descriptors
# Assay type: cell-based, Trypanosoma cruzi
# condition.summary: Time 4; sheet figure 4 A

Q. Entry CN(C)CCOc1ccc(N2CCN(S(=O)(=O)c3ccc(Cl)cc3)CC2)cc1 has what AM/CELL NORM?
A. 6.264

Q. Entry CS(=O)(=O)c1ccc(CC(=O)Nc2nc(-c3ccc(Cl)s3)cs2)cc1 has what AM/CELL NORM?
A. -3.952

Q. Entry CC(CNS(=O)(=O)c1ccc(OC(F)F)cc1)c1ccc(NC(=O)c2ccncc2)cc1 (centres unmarked) has what AM/CELL NORM?
A. 3.544

Q. Entry Cn1cncc1CN1CCC2(CC1)COC(Cc1ccccc1)C2 (centres unmarked) has what AM/CELL NORM?
A. 12.5806

Q. Entry O=C(O)C(F)(F)F.O=c1ccc2ccc(F)c3c2n1C[C@H]3CN1CCC(NCc2cc3ccccc3o2)CC1 has what AM/CELL NORM?
A. 0.9981
